tested on: transactivating tegument protein VP16 (Human herpesvirus 1), Gal4-VP16 luciferase reporter; assay: VP16 transactivation inhibitors, counter-screen for SRC3 inhibitor project, cell-based, luminescence, high throughput (AID 588794); conditions: mammalian cells, VP16-driven luciferase reporter luminescence; at 3.6 µM; stronger effect = higher value
Bridge positions count the residues as written; N and C are the ends. Square brackets hold non-standard residues; d marks the D form. Peptide text beside a SMILES is read from it.
molecules and their reported inhibition
Report the figure in % without appending any unit label.

1) CC(=O)c1c(C(C)=O)c(C)n(-c2ccc3ncccc3c2)c1C = 6.55
2) O=C(CNc1cccc([N+](=O)[O-])c1)N/N=C/c1ccc([N+](=O)[O-])o1 = 14.3

get_value(item= "O=C(Nc1nc(-c2ccccc2)cs1)c1ccc2c(=O)n3c(nc2c1)CCCCC3" , readout=inhibition) returns 31.6

get_value(item= "COc1ccc(OC)c(NC(=O)c2nnn(Cc3ccccc3C)c2N)c1" , readout=inhibition) returns 29.9

get_value(item= CC[C@H](C)[C@@H]1NC(=O)[C@@H](CC(C)C)NC(=O)[C@H](C(C)C)NC(=O)[C@H]2CSSC[C@H](NC1=O)C(=O)N2 (cyclo(C[dC]V[dL]I); disulfide 1-2) , readout=inhibition) returns 98.3

get_value(item= "O=C(NCc1cccnc1)/C(=C\c1ccc(-c2cccc(Cl)c2)o1)S(=O)(=O)c1ccccc1" , readout=inhibition) returns 13.6

get_value(item= "Cc1ccc(-n2c(-c3ccc(Cl)cc3)c[n+]3c2CCC3)cc1" , readout=inhibition) returns 21.9

get_value(item= "CCN1/C(=C/c2ccc3cc(C)ccc3[n+]2CC)Sc2cc(C)ccc21" , readout=inhibition) returns 64

get_value(item= "C=C1C(=O)[C@@]23[C@H](O)C[C@@H]4C(C)(C)CC[C@H](O)[C@@]4(C)[C@@H]2CC[C@@H]1[C@H]3O" , readout=inhibition) returns 49.6

###

target: Induced myeloid leukemia cell differentiation protein Mcl-1 (Homo sapiens) (UniProt Q07820); test: inhibitors of MCL1 binding to BIM-BH3, confirmation, biochemical, fluorescence polarization, triplicate (AID 2168); settings: GST-MCL1 / FITC-Bim-BH3 fluorescence polarization; at 10.9 µM;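 further: 0% = DMSO wells and 100% = unlabeled Bim-BH3 control peptide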
Sequence (Q07820 whole entry, looked up): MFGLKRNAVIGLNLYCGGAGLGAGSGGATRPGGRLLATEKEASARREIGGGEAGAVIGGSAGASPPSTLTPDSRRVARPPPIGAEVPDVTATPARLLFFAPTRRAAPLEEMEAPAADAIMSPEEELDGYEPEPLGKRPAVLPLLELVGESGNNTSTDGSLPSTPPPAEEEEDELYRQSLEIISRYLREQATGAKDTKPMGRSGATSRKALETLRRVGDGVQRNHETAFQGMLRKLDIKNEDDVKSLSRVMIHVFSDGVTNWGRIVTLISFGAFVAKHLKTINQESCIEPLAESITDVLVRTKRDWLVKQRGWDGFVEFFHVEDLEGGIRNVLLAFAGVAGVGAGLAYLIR
The other results are listed elsewhere or left out. Activity calls are given as the source filed them.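 How the source made its calls: active means inhibition above the average of all tested compounds plus 3 SD (cut at about 40% in these data); inactive means the rest.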
Mark one answer only. Choices: yes = active, no = inactive

Worked set:
1) Brc1ccc(C2=CC(c3ccco3)n3ncnc3N2)cc1 (stereo unspecified) = yes
2) CCOC(=O)c1cc2n(c1N)-c1ccccc1C2=O = yes
3) O=[N+]([O-])c1cc(Cl)cc(/C=N/NC(=S)Nc2cc(S(=O)(=O)N3CCOCC3)ccc2Cl)c1O = yes
4) COc1ccc(Nc2cc(Cl)ccc2C(=O)O)cn1 = yes
5) COC/C=C/C1=CC2=CC(=O)C(C)(OC(=O)CCC(=O)OC)C(=O)C2=CO1 (stereo unspecified) = yes

Query: Check the results log: what was the call for "Cc1ccc(/C=C(\C#N)C(=O)Nc2cccc3ncccc23)o1" ?
Response: yes

Query: Check the results log: what was the call for "O=C(O)c1ccccc1N=N/C(=N/Nc1cc(S(=O)(=O)O)ccc1O)c1ccccc1" ?
Response: yes

###

target: Nuclear receptor coactivator 3 (Homo sapiens); assay: SRC3 coactivator transcriptional activity inhibitors, confirmation, cell-based, luminescence, quadruplicate (AID 588792); conditions: HEK293 GAL4-SRC3 luciferase reporter, at 3.6 µM, stronger effect = higher value;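 further: 0% = DMSO treated cells and 100% = gossypol at 36 µM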
Attribute Measured: inhibition (%)
Report the figure in % without appending any unit label.

Observe how each entry below is paired with its result.
1. Cc1ccc(S(=O)(=O)Nc2ccccc2C(=O)Nc2nc(-c3ccc(F)cc3)cs2)cc1 = 20.7
2. O=C(CCCN1C(=O)/C(=C/c2ccccc2Cl)SC1=S)NNC(=O)c1ccccc1Cl = 58
3. Cc1ccccc1OCc1n(CC(=O)OC2CC(C)CCC2C(C)C)c2ccccc2[n+]1C (stereo not given) = 13

Could you now consider this next compound?
get_value(item= COc1ccc(C(C(=O)NC2CCCCC2)N(C(=O)CCl)c2ccc(C)cc2)cc1 (stereo not given) , readout=inhibition) returns 71.8
